All values here come from the supplement of paper PMC7877785.

Assay: self-splicing fitness, log relative to wild type (ln ratio); higher = more splicing; Tetrahymena group I intron in knt gene, E. coli kanamycin selection, DiMSum; sequences stand for … in CUCUCU…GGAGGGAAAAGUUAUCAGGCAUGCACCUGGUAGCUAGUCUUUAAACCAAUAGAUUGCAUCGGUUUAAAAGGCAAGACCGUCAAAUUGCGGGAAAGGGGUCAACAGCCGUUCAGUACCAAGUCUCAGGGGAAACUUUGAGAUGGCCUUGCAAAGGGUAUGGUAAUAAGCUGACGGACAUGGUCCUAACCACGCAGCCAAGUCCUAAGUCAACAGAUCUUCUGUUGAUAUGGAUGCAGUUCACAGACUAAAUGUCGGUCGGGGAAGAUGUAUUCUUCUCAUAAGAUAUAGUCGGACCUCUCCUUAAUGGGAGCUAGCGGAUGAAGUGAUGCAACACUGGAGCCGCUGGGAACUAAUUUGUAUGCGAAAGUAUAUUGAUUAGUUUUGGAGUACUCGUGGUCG;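 also: selection with 25 µg/mL kanamycin versus none on LB agar overnight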
Conditions: 37 °C
Hi, to clarify the labels: condition met covers self-splicing fitness (ln) from -2 upward, condition not met covers anything below -2.

Query: Test whether the sequence CCGAAGCAAUAUUACGUUCA records self-splicing fitness (ln) of -2 or higher.
Result: condition met

Query: Test whether the sequence ACAGAGCAAUAUUACGGCAU records self-splicing fitness (ln) of -2 or higher.
Result: condition met

Query: Test whether the sequence CGAAAGCAAUAUUACGCGGG records self-splicing fitness (ln) of -2 or higher.
Result: condition met

Query: Test whether the sequence CUCGAGCAAUAUUACGAUGC records self-splicing fitness (ln) of -2 or higher.
Result: condition not met

Query: Test whether the sequence ACAGAGCAAUAUUACGGACA records self-splicing fitness (ln) of -2 or higher.
Result: condition not met

Query: Test whether the sequence AAAUAGCAAUAUUACGAAGU records self-splicing fitness (ln) of -2 or higher.
Result: condition not met

Query: Test whether the sequence CUCAAGCAAUAUUACGAUGC records self-splicing fitness (ln) of -2 or higher.
Result: condition not met

Query: Test whether the sequence ACGGAGCAAUAUUACGAGUC records self-splicing fitness (ln) of -2 or higher.
Result: condition not met

Query: Test whether the sequence CGUGAGCAAUAUUACGUAGG records self-splicing fitness (ln) of -2 or higher.
Result: condition met

Query: Test whether the sequence UGGUAGCAAUAUUACGUCGG records self-splicing fitness (ln) of -2 or higher.
Result: condition met

Query: Test whether the sequence ACUGAGCAAUAUUACGGAGG records self-splicing fitness (ln) of -2 or higher.
Result: condition not met

Query: Test whether the sequence ACUCAGCAAUAUUACGAGUA records self-splicing fitness (ln) of -2 or higher.
Result: condition met

Query: Test whether the sequence CACUAGCAAUAUUACGCAUU records self-splicing fitness (ln) of -2 or higher.
Result: condition not met

Query: Test whether the sequence UAAUAGCAAUAUUACGCAAA records self-splicing fitness (ln) of -2 or higher.
Result: condition met

Query: Test whether the sequence GUAGAGCAAUAUUACGCCUG records self-splicing fitness (ln) of -2 or higher.
Result: condition met

Query: Test whether the sequence CAGUAGCAAUAUUACGCAGG records self-splicing fitness (ln) of -2 or higher.
Result: condition met

Query: Test whether the sequence GCUGAGCAAUAUUACGAAUG records self-splicing fitness (ln) of -2 or higher.
Result: condition met

Query: Test whether the sequence UAUGAGCAAUAUUACGCAAG records self-splicing fitness (ln) of -2 or higher.
Result: condition met

Query: Test whether the sequence CAAUAGCAAUAUUACGAUGU records self-splicing fitness (ln) of -2 or higher.
Result: condition not met

Query: Test whether the sequence GAGGAGCAAUAUUACGGCGU records self-splicing fitness (ln) of -2 or higher.
Result: condition met

Query: Test whether the sequence UCCGAGCAAUAUUACGACUC records self-splicing fitness (ln) of -2 or higher.
Result: condition not met

Query: Test whether the sequence AUAUAGCAAUAUUACGAUAG records self-splicing fitness (ln) of -2 or higher.
Result: condition met

Query: Test whether the sequence GGACAGCAAUAUUACGGAGU records self-splicing fitness (ln) of -2 or higher.
Result: condition met

Query: Test whether the sequence AGGCAGCAAUAUUACGUUAA records self-splicing fitness (ln) of -2 or higher.
Result: condition met

Query: Test whether the sequence GACUAGCAAUAUUACGUACG records self-splicing fitness (ln) of -2 or higher.
Result: condition met

Query: Test whether the sequence AAGCAGCAAUAUUACGUACA records self-splicing fitness (ln) of -2 or higher.
Result: condition met

Query: Test whether the sequence UUCUAGCAAUAUUACGACAG records self-splicing fitness (ln) of -2 or higher.
Result: condition met

Query: Test whether the sequence UUCUAGCAAUAUUACGAGUC records self-splicing fitness (ln) of -2 or higher.
Result: condition met

Query: Test whether the sequence ACGCAGCAAUAUUACGCGCC records self-splicing fitness (ln) of -2 or higher.
Result: condition not met

Query: Test whether the sequence CGAUAGCAAUAUUACGAUCC records self-splicing fitness (ln) of -2 or higher.
Result: condition met

Query: Test whether the sequence CCGUAGCAAUAUUACGCAUA records self-splicing fitness (ln) of -2 or higher.
Result: condition not met

Query: Test whether the sequence GUCCAGCAAUAUUACGUAUU records self-splicing fitness (ln) of -2 or higher.
Result: condition met

Query: Test whether the sequence UAGUAGCAAUAUUACGAACU records self-splicing fitness (ln) of -2 or higher.
Result: condition met

Query: Test whether the sequence UACUAGCAAUAUUACGCGCC records self-splicing fitness (ln) of -2 or higher.
Result: condition met

Query: Test whether the sequence UUCCAGCAAUAUUACGAUUU records self-splicing fitness (ln) of -2 or higher.
Result: condition met

Query: Test whether the sequence AAAGAGCAAUAUUACGGCUG records self-splicing fitness (ln) of -2 or higher.
Result: condition met

Query: Test whether the sequence ACGUAGCAAUAUUACGUUUC records self-splicing fitness (ln) of -2 or higher.
Result: condition not met

Query: Test whether the sequence AGCUAGCAAUAUUACGCGAU records self-splicing fitness (ln) of -2 or higher.
Result: condition not met

Query: Test whether the sequence GCUUAGCAAUAUUACGACUA records self-splicing fitness (ln) of -2 or higher.
Result: condition met

Query: Test whether the sequence CCUUAGCAAUAUUACGUCGG records self-splicing fitness (ln) of -2 or higher.
Result: condition met

Query: Test whether the sequence CAUGAGCAAUAUUACGCUGA records self-splicing fitness (ln) of -2 or higher.
Result: condition not met

Query: Test whether the sequence UUCGAGCAAUAUUACGUAUG records self-splicing fitness (ln) of -2 or higher.
Result: condition not met

Query: Test whether the sequence UAACAGCAAUAUUACGUUUC records self-splicing fitness (ln) of -2 or higher.
Result: condition not met

Query: Test whether the sequence UGGGAGCAAUAUUACGUCCA records self-splicing fitness (ln) of -2 or higher.
Result: condition met

Query: Test whether the sequence CCAAAGCAAUAUUACGUUCC records self-splicing fitness (ln) of -2 or higher.
Result: condition not met

Query: Test whether the sequence GAGUAGCAAUAUUACGUCCC records self-splicing fitness (ln) of -2 or higher.
Result: condition met

Query: Test whether the sequence UGUAAGCAAUAUUACGUGAG records self-splicing fitness (ln) of -2 or higher.
Result: condition met

Query: Test whether the sequence GCAAAGCAAUAUUACGACAA records self-splicing fitness (ln) of -2 or higher.
Result: condition met

Query: Test whether the sequence GAUGAGCAAUAUUACGCAGA records self-splicing fitness (ln) of -2 or higher.
Result: condition met

Query: Test whether the sequence CUACAGCAAUAUUACGCAUU records self-splicing fitness (ln) of -2 or higher.
Result: condition not met

Query: Test whether the sequence CAGUAGCAAUAUUACGUGGC records self-splicing fitness (ln) of -2 or higher.
Result: condition not met

Query: Test whether the sequence AUGGAGCAAUAUUACGUAAA records self-splicing fitness (ln) of -2 or higher.
Result: condition not met

Query: Test whether the sequence GCUUAGCAAUAUUACGCGAU records self-splicing fitness (ln) of -2 or higher.
Result: condition met

Query: Test whether the sequence AGAGAGCAAUAUUACGGCUU records self-splicing fitness (ln) of -2 or higher.
Result: condition met

Query: Test whether the sequence UUCGAGCAAUAUUACGAUAC records self-splicing fitness (ln) of -2 or higher.
Result: condition not met

Query: Test whether the sequence GCUUAGCAAUAUUACGCUGG records self-splicing fitness (ln) of -2 or higher.
Result: condition not met

Query: Test whether the sequence ACAAAGCAAUAUUACGAGGC records self-splicing fitness (ln) of -2 or higher.
Result: condition met

Query: Test whether the sequence CGGGAGCAAUAUUACGUAGC records self-splicing fitness (ln) of -2 or higher.
Result: condition met

Query: Test whether the sequence CUUGAGCAAUAUUACGCAUG records self-splicing fitness (ln) of -2 or higher.
Result: condition met

Query: Test whether the sequence GUUUAGCAAUAUUACGUCUG records self-splicing fitness (ln) of -2 or higher.
Result: condition met

Query: Test whether the sequence CGGUAGCAAUAUUACGACCG records self-splicing fitness (ln) of -2 or higher.
Result: condition not met

Query: Test whether the sequence GGGUAGCAAUAUUACGUGUG records self-splicing fitness (ln) of -2 or higher.
Result: condition met

Query: Test whether the sequence GGCCAGCAAUAUUACGUCGU records self-splicing fitness (ln) of -2 or higher.
Result: condition met

Query: Test whether the sequence GCUGAGCAAUAUUACGGAUU records self-splicing fitness (ln) of -2 or higher.
Result: condition met

Query: Test whether the sequence GGGUAGCAAUAUUACGCAGA records self-splicing fitness (ln) of -2 or higher.
Result: condition met
